Each entry below carries its recorded IC50.
System: MiaPaca human pancreatic carcinoma cells
Assay: Cell proliferation assay, Alamar Blue, MiaPaca
Assay type: cell-based
Conditions: MIA PaCa-2, Table 16

Solved entries:
O=C(O)c1ccc2c(c1)nc(Nc1cc(F)cc(F)c1)c1ccsc12 6.36 µM
O=C(O)c1ccc2c(c1)nc(Nc1cccc(Cl)c1)c1ccsc12 9.82 µM
O=C(O)c1ccc2c(c1)nc(Nc1ccc(F)c(Cl)c1)c1ccsc12 > 10 µM
Clc1cccc(Nc2nc3cc(-c4nnn[nH]4)ccc3c3sccc23)c1 > 10 µM
COCCNC(=O)c1cccc(Nc2nc3cc(-c4nnn[nH]4)ccc3c3sccc23)c1 > 10 µM

We now examine a further compound.
Return IC50 measured with MiaPaca human pancreatic carcinoma cells given this compound: O=C(O)c1ccc2c(c1)nc(Nc1cc(F)ccc1F)c1ccsc12 > 10 µM
